- Tested on: Leucine-rich repeat serine/threonine-protein kinase 2 (Homo sapiens), Q5S007 [G2019S]
- Sequence (Q5S007 whole entry G2019S): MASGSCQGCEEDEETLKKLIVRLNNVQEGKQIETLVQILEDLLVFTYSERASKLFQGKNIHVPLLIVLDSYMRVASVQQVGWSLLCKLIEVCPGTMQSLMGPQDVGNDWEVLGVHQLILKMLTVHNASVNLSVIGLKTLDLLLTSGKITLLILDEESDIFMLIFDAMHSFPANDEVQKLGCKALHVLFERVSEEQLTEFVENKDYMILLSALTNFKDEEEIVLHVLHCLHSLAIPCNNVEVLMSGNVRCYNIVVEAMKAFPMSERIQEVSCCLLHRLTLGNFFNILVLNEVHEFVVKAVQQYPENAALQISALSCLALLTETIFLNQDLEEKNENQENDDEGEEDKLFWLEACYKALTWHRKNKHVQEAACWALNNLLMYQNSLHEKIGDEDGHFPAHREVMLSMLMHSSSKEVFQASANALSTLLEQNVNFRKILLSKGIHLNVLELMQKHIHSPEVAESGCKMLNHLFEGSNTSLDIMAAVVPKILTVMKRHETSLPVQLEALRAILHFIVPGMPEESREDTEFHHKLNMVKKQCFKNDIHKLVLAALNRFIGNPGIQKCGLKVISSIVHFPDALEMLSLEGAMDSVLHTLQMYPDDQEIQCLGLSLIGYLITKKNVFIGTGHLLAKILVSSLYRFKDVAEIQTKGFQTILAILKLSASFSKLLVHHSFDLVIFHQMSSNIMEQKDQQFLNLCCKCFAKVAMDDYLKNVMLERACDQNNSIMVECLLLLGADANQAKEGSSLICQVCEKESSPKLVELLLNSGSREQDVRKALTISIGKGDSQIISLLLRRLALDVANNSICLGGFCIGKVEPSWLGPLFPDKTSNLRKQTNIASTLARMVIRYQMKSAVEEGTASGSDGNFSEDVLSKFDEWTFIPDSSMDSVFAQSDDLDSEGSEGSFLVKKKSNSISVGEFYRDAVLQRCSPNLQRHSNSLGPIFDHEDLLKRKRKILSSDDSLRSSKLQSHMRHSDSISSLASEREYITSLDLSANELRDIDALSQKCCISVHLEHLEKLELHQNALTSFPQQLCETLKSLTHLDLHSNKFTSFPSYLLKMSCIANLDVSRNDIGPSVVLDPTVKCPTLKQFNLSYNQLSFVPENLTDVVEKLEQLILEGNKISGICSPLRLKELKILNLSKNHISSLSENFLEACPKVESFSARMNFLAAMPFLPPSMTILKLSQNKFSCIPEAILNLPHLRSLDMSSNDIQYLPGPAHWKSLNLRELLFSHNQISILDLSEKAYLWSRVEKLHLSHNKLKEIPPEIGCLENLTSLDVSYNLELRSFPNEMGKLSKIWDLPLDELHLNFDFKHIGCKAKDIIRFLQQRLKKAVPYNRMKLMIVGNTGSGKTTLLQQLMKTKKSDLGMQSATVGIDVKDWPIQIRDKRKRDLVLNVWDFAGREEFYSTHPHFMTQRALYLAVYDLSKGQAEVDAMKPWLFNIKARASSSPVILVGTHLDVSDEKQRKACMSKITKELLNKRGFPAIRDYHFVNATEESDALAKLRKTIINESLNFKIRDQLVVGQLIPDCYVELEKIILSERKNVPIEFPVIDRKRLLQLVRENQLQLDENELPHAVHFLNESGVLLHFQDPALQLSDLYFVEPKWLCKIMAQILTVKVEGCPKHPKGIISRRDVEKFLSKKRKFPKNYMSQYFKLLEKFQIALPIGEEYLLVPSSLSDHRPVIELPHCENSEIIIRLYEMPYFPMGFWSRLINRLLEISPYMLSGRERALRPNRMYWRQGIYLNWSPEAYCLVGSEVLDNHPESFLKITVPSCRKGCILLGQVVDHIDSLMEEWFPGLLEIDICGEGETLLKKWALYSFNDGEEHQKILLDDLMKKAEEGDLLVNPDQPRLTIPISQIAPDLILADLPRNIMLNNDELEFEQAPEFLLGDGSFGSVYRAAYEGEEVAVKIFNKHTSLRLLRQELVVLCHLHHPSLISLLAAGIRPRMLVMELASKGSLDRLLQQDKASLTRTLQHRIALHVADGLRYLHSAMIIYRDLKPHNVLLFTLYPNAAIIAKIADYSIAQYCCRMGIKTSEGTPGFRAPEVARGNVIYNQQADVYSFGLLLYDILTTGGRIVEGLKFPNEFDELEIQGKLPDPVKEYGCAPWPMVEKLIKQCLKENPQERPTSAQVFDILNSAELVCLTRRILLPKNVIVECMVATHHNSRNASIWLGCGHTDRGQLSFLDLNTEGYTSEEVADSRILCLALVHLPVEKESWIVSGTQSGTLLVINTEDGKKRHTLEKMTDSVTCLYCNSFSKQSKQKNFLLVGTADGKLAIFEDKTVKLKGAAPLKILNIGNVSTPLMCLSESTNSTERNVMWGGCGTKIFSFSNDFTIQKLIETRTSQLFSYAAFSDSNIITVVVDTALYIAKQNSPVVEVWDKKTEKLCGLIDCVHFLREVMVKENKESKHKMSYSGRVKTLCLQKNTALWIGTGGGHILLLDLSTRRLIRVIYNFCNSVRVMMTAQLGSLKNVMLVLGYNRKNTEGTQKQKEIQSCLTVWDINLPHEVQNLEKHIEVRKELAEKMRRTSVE
- method: Inhibition of human recombinant GST-tagged LRRK2 G2019S mutant (970 residues) expressed in baculovirus expression system using LRRKtide as substrate at 100 uM incubated for 10 mins by scintillation counting method in presence of [gamma33P]ATP
Activity calls are given as the source filed them. The calls are words filed in the database; no cut-off is given here.
Outcome codes: active, inactive

1) COc1ccc(/C=N/Nc2nc3c(c(-c4ccccc4)c2C#N)CCCC3)cc1 active
2) COc1ccc(-c2nnc3c(NCCN4CCOCC4)cccn23)cc1OC active
3) Cc1cc(N/N=C/c2ccc(OC(=O)c3ccc(N4CCN(C)CC4)cc3)cc2)nc2ccccc12 inactive
4) COc1ccc(/C=N/Nc2ncccc2Cl)cc1OC active
5) COc1ccc(/C=N/Nc2nc(C)cc(C)c2C#N)cc1 active
6) COc1ccc(/C=N/Nc2ccccn2)cc1 active
